# measurement.target: CatSper (Homo sapiens, UniProt Q7RTX7+Q86XQ3+Q8NEC5+Q96P56)
# experimental.protocol: Progesterone-induced calcium uptake
The following compounds are listed with their measured IC50 values.
Supply the numeric figure in µM, leaving out any unit text.

Sample records with IC50:
| compound | IC50 / µM |
| --- | --- |
| OC1(c2ccc(Cl)cc2)CCN(Cc2c[nH]c3ccccc23)CC1 [2 a] | 7.5 |
| Cc1cc(C)c2nc(C)cc(NCCc3ccccc3)c2c1 [3 a] | 3.6 |
| NC(N)=NC(=O)c1nc(Cl)c(N2CCCCCC2)nc1N [1 a] | 5.4 |
| O=C(Nc1cccc(C(F)(F)F)c1)N1CCN(c2cccc(C(F)(F)F)c2)CC1 [4 a] | 4.9 |
| CN1CCCC(n2nc(Cc3ccc(Cl)cc3)c3ccccc3c2=O)CC1 (stereo not shown) [6 a, azelastine, reference compound] | 5.4 |

// field: IC50; key: CCN(CC)CCNC(=O)C1CCN(c2ccc3nnc(-c4cccc(C)c4)n3n2)CC1 [7 a] ; value = 20

// field: IC50; key: N=c1n(CCN2CCCCC2)c2ccccc2n1CC(O)c1cccc(Br)c1 (stereo not shown) [5 f] ; value = 3.4

// field: IC50; key: O=c1c2ccccc2c(Cc2ccc(Cl)cc2)nn1C1CCCNCC1 (stereo not shown) [6 b] ; value = 8.3
